Biological target: SSTR4 (Homo sapiens, UniProt P31391)
Construct: host or cells: CHO-K1
Sequence (P31391 whole entry): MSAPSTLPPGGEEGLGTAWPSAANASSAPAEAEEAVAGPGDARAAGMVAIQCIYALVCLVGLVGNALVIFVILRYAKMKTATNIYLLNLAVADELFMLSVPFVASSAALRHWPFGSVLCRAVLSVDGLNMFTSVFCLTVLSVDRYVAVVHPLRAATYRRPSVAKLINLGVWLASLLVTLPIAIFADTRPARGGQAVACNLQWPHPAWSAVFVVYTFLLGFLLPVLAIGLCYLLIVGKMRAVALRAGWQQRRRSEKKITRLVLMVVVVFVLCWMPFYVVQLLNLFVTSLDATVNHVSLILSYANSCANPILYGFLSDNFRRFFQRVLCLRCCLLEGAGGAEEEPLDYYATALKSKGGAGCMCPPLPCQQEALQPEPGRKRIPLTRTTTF
Test: Inhibition of forskolin stimulated cAMP in CHO-K1 cells overexpressing SSTR4
Type: cell-based
Settings: read-out: SSTR4 Activity pEC50 (converted)
Recorded EC50 values for a group of compounds are listed next.
assayEndpoint: EC50

In [3]: df
Out[3]:
                                    compound                       systemundertest  assayendpoint    result
 0  Cc1cnc(OCC(C)(C)NC(=O)C[C@@H]2CCCN2C)c(Cl)c1  SSTR4 (Homo sapiens, UniProt P31391)           EC50   39.8 nM
 1  CC(C)(COc1ncccc1C(F)(F)F)NC(=O)C[C@@H]1CCCN1C1CC1  SSTR4 (Homo sapiens, UniProt P31391)           EC50   63.1 nM
 2  Cc1c(F)cccc1C(C)(C)NC(=O)[C@H](C)CN1CCC1 (single isomer, unassigned)  SSTR4 (Homo sapiens, UniProt P31391)           EC50   1.58 nM
 3  CN1CCC[C@@H]1CC(=O)NC(C)(C)c1nn(C)c2ccccc12  SSTR4 (Homo sapiens, UniProt P31391)           EC50   25.1 nM
 4    Cc1cccnc1OCC1(NC(=O)C[C@@H]2CCCN2C)CC1  SSTR4 (Homo sapiens, UniProt P31391)           EC50    251 nM
 5   Cc1c(F)cccc1C(C)(C)NC(=O)C[C@@H]1CCCN1C  SSTR4 (Homo sapiens, UniProt P31391)           EC50    126 nM
 6  C[C@@H](CN1CCC1)C(=O)NC1(c2ccccc2F)CC1 (single isomer, unassigned)  SSTR4 (Homo sapiens, UniProt P31391)           EC50   7.94 nM
 7   Cc1c(Cl)cccc1C(C)(C)NC(=O)C[C@H]1CCCN1C  SSTR4 (Homo sapiens, UniProt P31391)           EC50   15.8 nM
 8  COc1cc(F)ccc1[C@H](C)NC(=O)C[C@@H]1CCCN1C  SSTR4 (Homo sapiens, UniProt P31391)           EC50    794 nM
 9  Cc1cccnc1OCC(C)(C)NC(=O)[C@@H](C)[C@@H]1CCCN1C (racemic)  SSTR4 (Homo sapiens, UniProt P31391)           EC50   1.58 nM
10  CC[C@@H](CN1CCC1)C(=O)NC(C)(C)c1ccc(C)cc1 (single isomer, unassigned)  SSTR4 (Homo sapiens, UniProt P31391)           EC50  0.794 nM
11    Cc1cccnc1OCC(C)(C)NC(=O)C[C@@H]1CCCN1C  SSTR4 (Homo sapiens, UniProt P31391)           EC50   12.6 nM
12   Cc1cccc(C(C)(C)NC(=O)C[C@H]2CCCN2C)c1Cl  SSTR4 (Homo sapiens, UniProt P31391)           EC50   39.8 nM
13          Cc1cccc(C(C)(C)NC(=O)CCN2CCC2)c1  SSTR4 (Homo sapiens, UniProt P31391)           EC50   7.94 nM
14  Cc1ccccc1C(NC(=O)CCN1CCC1)C(F)(F)F (single isomer, unassigned)  SSTR4 (Homo sapiens, UniProt P31391)           EC50     10 nM
15  Cc1cccc2c(C(C)(C)NC(=O)C[C@@H]3CCCN3C)noc12  SSTR4 (Homo sapiens, UniProt P31391)           EC50   12.6 nM
16       CN1CCC[C@H]1CC(=O)NC(C)(C)c1ccccc1F  SSTR4 (Homo sapiens, UniProt P31391)           EC50    158 nM
17  COc1ccccc1C(C)(C)NC(=O)[C@H](C)CN1CCCC1 (single isomer, unassigned)  SSTR4 (Homo sapiens, UniProt P31391)           EC50   2.51 nM
